All values here come from ChEMBL document CHEMBL1201862.

Test system: UACC-257
Assay protocol: NCI tumour cell line growth inhibition, 48 h
Active and inactive are the calls of the source. Cut-off read from the data, not from the text of the source: active = GI50 up to about 1.1 µM and inactive = higher. Where a SMILES comes first, the peptide text is derived from it. The star is where a group is joined. Cbz = O=C(OCc1ccccc1)*; Bn = c1ccc(C*)cc1
Readout label: GI50

Dear colleague, could you please provide GI50 for the compounds listed below?
1. Cc1[nH]n(C(=N)N)c(=O)c1CCO
2. CC(C)=CCC[C@]1(C)C=Cc2c(O)c3c(c(CC=C(C)C)c2O1)O[C@]12C(=C[C@@H]4CC1C(C)(C)O[C@@]2(C/C=C(/C)C(=O)O)C4=O)C3=O
3. CN(C(=O)c1ccccc1)C1CCCC(=O)CC1 (centres undefined)
4. O=C(/C=C/c1c(O)nc2ccccc2c1O)CC(=O)C(=O)Nc1cccc(O)c1

## Output
["> 100 µM (inactive)", "2.31 µM (inactive)", "> 100 µM (inactive)", "> 100 µM (inactive)"]

Dear colleague, could you please provide GI50 for the compounds listed below?
1. COc1ccc(C(=O)N2c3ccccc3N(C)n3cccc3C2CC(=O)O)cc1 (centres undefined)
2. COC(=O)C(Cc1ccc(O)cc1)NC(=O)C(COCc1ccccc1)NC(=O)OCc1ccccc1 (centres undefined) (Cbz-Ser(Bn)-Tyr-OMe; configuration not given here)
3. CCCCN(CC)c1nc(C)nc2c1c(C)c(C)n2-c1c(C)cc(C)cc1C

## Output
> 100 µM (inactive)
19.3 µM (inactive)
13.3 µM (inactive)

Dear colleague, could you please provide GI50 for the compounds listed below?
1. CC(=O)/C=C/c1ccc(C)cc1
2. S=C(S)NCCN1CCNCC1

## Output
1: > 100 µM (inactive); 2: 20.7 µM (inactive)
